For each record, write down the corresponding self-cleavage.
B1: CPEB3 Ribozyme (parent)
chain: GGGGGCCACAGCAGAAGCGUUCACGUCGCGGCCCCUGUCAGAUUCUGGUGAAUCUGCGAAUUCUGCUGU

# Variants of: B1
# assay-remarks: self-cleavage, relative activity (ratio to wild type); higher = more cleavage; co-transcriptional
Give bare numbers.

For every record below, what is its self-cleavage?
1. GGGGGCCACAGCAGAAGCGUGCACGUCGCGGCCCCUGUCAGAUUCUGGUGAAGCUGCGAAUUCUGCUGU
2. GGGGGCCACAGCAGAAGCGUCCACGUCGCGGCCCCUGUCAGAUUCUGGUGAAUCCGCGAAUUCUGCUGU
3. GGGGGCCACAGCAGAAGCGUUCACGUCGCGGCCCCUGUCAGAUUCUGGUGAAGCUACGAAUUCUGCUGU
4. GGGGGCCACAGCAGAAGCGUUCACGUCGCGGCCCCUGUCAGAAUCUGGUGAAUCUGUGAAUUCUGCUGU
5. GGCGGCCACAGCAGAAGAGUUCACGUCGCGGCCCCUGUCAGAUUCUGGUGAAUCUGCGAAUUCUGCUGU
6. GCGGGCCACAGCAGAAGCGUUCACGUCGCGGCCCCUGUCAGAUUCUGGUGAAUCUGCGAAUUCUGCUGC

Found:
[0.376, 0.611, 0.553, 0.41, 0.058, 0.147]
